# assay-summary: protein stability index of a GFP-peptide fusion (GPS, HEK-293T) (PSI 1-6); higher = more stable;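 note: 24-mer peptide tiles fused after GFP, lentivirally expressed, FACS-sorted into six equal bins by GFP/DsRed ratio, decoded by Illumina sequencing, PSI is the read-weighted mean bin number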
# condition-summary: treatment: DMSO; c terminus: a fixed tail appended
Below, each of the sequences is paired with its reported protein stability index value.
Give a plain numeric answer without units written out.

Sample answers from the record:
>>> value_reported("HFSFNVKFYPPDPAQLSEDITRYY [EPB41L3]")
2.21
>>> value_reported("QNEEYLLTYINEDRISTTFRLTTL [PLK2]")
2.6
>>> value_reported("GFFEEKGAIFCPPCYDVRYAPSCA [PDLIM7]")
2.26
>>> value_reported("PSLQAWNDAPCDKTFLFICKRPYV [CD207]")
2.17
>>> value_reported("FPHSGKDCLLCFPETLPESSLFSV [C8orf76]")
2.21
>>> value_reported("NRRGGPPFAFVEFEDPRDAEDAVY [SRSF1]")
3.91
>>> value_reported("SSPRGMVRVCDLLLKKKPPQQQHH [ANKRD17]")
3.2
>>> value_reported("AALLGSNSESWGWDIGRGKLYHQS [SPSB2]")
2.6
>>> value_reported("NGHTDVADVLLQAGADLEHESEGG [ANKRD17]")
5.37
>>> value_reported("PQSLPSTPKAAWIREEGRCSSSDD [PBXIP1]")
5.25

Q. What value of protein stability index has been recorded for this entry: SPSPMDPHMAEQTFEQAIQAASRI [CDC25B]
A. 4.68

Q. Record: EQTCDPDSSLHWSSSYSPETFRQQ [ZNF396]
A. 4.43
